Assay: pivotal 12-month monkey study
Conditions: in vivo, oral, read-out: NOAEL dose
Description: In the pivotal 6-month rat study, the no-observed-adverse-effect level (NOAEL) dose was 30 mg/kg/day in male and female rats and the corresponding area under the curve during 24 hours (AUC0-24) values of the sum of ETC-1002 and ESP15228 were up to 528 μg·hr/mL. In the pivotal 12-month monkey study, the NOAEL dose was 60 mg/kg/day and the corresponding AUC0-24 value of the sum of ETC-1002 and ESP15228 was up to 4478 μg·hr/mL.
Observable: NOAEL at 12 months (mg/kg/day)
Give just the numeric value; mg/kg/day need not be written.

Prompt line: May I ask what NOAEL at 12 months has been recorded for CC(C)(CCCCCC(O)CCCCCC(C)(C)C(=O)O)C(=O)O ?
Response line: 60
